- METHOD: Inhibition of eIF2alpha (unknown origin) assessed as eIF2alpha phosphorylation by TR-FRET assay
In this section, each of the compounds is paired with its reported IC50.
Write the value in nM as a bare number.

SMILES_ENTRY: CO[C@@H](C(=O)Nc1ccc(-c2cnc(N)c(C(=O)NC(C)C)c2)c(C)c1)c1ccccc1
REPORTED_MEASUREMENT: 3340
//
SMILES_ENTRY: CNC(=O)c1cc(-c2ccc(NC(=O)[C@H](O)c3cc(F)cc(F)c3)cc2C)cnc1N
REPORTED_MEASUREMENT: 58
//
SMILES_ENTRY: CC(C)NC(=O)c1cc(-c2ccc(NC(=O)[C@H](O)c3cc(F)cc(F)c3)cc2F)cnc1N
REPORTED_MEASUREMENT: 72
//
SMILES_ENTRY: CNc1ncc(-c2ccc(NC(=O)[C@H](O)c3cc(F)cc(F)c3)cc2C)cc1C(=O)NC(C)C
REPORTED_MEASUREMENT: 4030
//
SMILES_ENTRY: CCNC(=O)c1cc(-c2ccc(NC(=O)[C@H](O)c3cc(F)cc(F)c3)cc2C)cnc1N
REPORTED_MEASUREMENT: 45
//
SMILES_ENTRY: Cc1cc(NC(=O)[C@H](O)c2cc(F)cc(F)c2)ccc1-c1cnc(N)c(C(=O)NC(C)C)c1
REPORTED_MEASUREMENT: 33
//
SMILES_ENTRY: Cc1cccc([C@@H](O)C(=O)Nc2ccc(-c3cnc(N)c(C(=O)NC(C)C)c3)c(C)c2)c1
REPORTED_MEASUREMENT: 54
//
SMILES_ENTRY: Cc1cc(NC(=O)[C@@H](O)c2cc(F)cc(F)c2)ccc1-c1cnc(N)c(C(=O)NC(C)C)c1
REPORTED_MEASUREMENT: 187

Now look at this entry.
Prompt line: Which IC50 value belongs to Cc1cc(NC(=O)Cc2ccccc2)ccc1-c1cnc(N)c(C(=O)NC(C)C)c1 ?
Response line: 307

###

In this section, each of the compounds is paired with its reported log10 IC50.
- METHOD: Inhibition of eIF2alpha (unknown origin) assessed as eIF2alpha phosphorylation by TR-FRET assay
On a log10 scale: recorded IC50, unit µM.

See these solved cases before continuing.
SMILES_ENTRY: Cc1cc(NC(=O)[C@H](O)c2cc(F)cc(F)c2)ccc1-c1cnc(C)c(C(=O)NC(C)C)c1
log10 IC50: -0.20

SMILES_ENTRY: Cc1cc(NC(=O)[C@H](O)c2cc(F)cc(F)c2)ccc1-c1cnc(N)c(C(=O)N(C)C)c1
log10 IC50: 0.35

SMILES_ENTRY: Cc1cc(NC(=O)[C@H](O)c2cc(F)cc(F)c2)ccc1-c1cnc(N)c(C(=O)NC(C)C)n1
log10 IC50: -1.38

Prompt line: Which log10 IC50 value belongs to Cc1cc(NC(=O)[C@](C)(O)c2ccccc2)ccc1-c1cnc(N)c(C(=O)NC(C)C)c1 ?
Response line: 0.33

Prompt line: What do you get for CCc1cccc([C@@H](O)C(=O)Nc2ccc(-c3cnc(N)c(C(=O)NC(C)C)c3)c(C)c2)c1 ?
Response line: -1.74

Prompt line: What do you get for Cc1cc(NC(=O)[C@H](O)c2ccccc2)ccc1-c1cnc(N)c(C(=O)NC(C)C)c1 ?
Response line: -0.70

Prompt line: What do you get for CCc1cc(NC(=O)[C@H](O)c2cc(F)cc(F)c2)ccc1-c1cnc(N)c(C(=O)NC(C)C)c1 ?
Response line: -2.05

Prompt line: What do you get for Cc1cc(NC(=O)Nc2ccccc2)ccc1-c1cnc(N)c(C(=O)NC(C)C)c1 ?
Response line: 0.37

Prompt line: What do you get for Cc1cc(NC(=O)[C@H](O)c2cccc(Cl)c2)ccc1-c1cnc(N)c(C(=O)NC(C)C)c1 ?
Response line: -1.40

###

In this section, each of the molecules is paired with its reported IC50.
- METHOD: Inhibition of eIF2alpha (unknown origin) assessed as eIF2alpha phosphorylation by TR-FRET assay
Write the value in nM as a bare number.

SMILES_ENTRY: CC(C)NC(=O)c1cc(-c2ccc(NC(=O)[C@H](O)c3cc(F)cc(F)c3)cc2Cl)cnc1N
UNIT_ANNOTATION: nM
IC50: 23
//
SMILES_ENTRY: COc1cc(NC(=O)[C@H](O)c2cc(F)cc(F)c2)ccc1-c1cnc(N)c(C(=O)NC(C)C)c1
UNIT_ANNOTATION: nM
IC50: 366
//
SMILES_ENTRY: CNC(=O)c1nc(-c2ccc(NC(=O)[C@H](O)c3cc(F)cc(F)c3)cc2C)cnc1N
UNIT_ANNOTATION: nM
IC50: 40

Prompt line: Which IC50 value belongs to Cc1cc(NC(=O)[C@H](O)c2cc(F)cc(F)c2)ccc1-c1cc(C(=O)NC(C)C)c(N)nn1 ?
Response line: 7650

###

- METHOD: Inhibition of eIF2alpha (unknown origin) assessed as eIF2alpha phosphorylation by TR-FRET assay
In this section, each of the compounds is paired with its reported IC50.
Write the value in nM as a bare number.

See these solved cases before continuing.
SMILES_ENTRY: Cc1cc(NC(=O)[C@@](C)(O)c2ccccc2)ccc1-c1cnc(N)c(C(=O)NC(C)C)c1
UNIT_ANNOTATION: nM
IC50: 3020

SMILES_ENTRY: Cc1cc(NC(=O)[C@H](O)c2cc(F)cc(F)c2)ccc1-c1cnc(N)c(C(=O)NC2CC2)c1
UNIT_ANNOTATION: nM
IC50: 27

Now look at this entry.
Prompt line: Which IC50 value belongs to CC(C)NC(=O)c1cc(-c2ccc(NC(=O)[C@H](O)c3cc(F)cc(F)c3)cc2)cnc1N ?
Response line: 313

###

- METHOD: Inhibition of eIF2alpha (unknown origin) assessed as eIF2alpha phosphorylation by TR-FRET assay
ENDPOINT_NAME: IC50

Prompt line: Which IC50 value belongs to Cc1cc(NC(=O)[C@H](O)c2cc(F)cc(F)c2)ccc1-c1cnc(N)c(C(=O)OC(C)C)c1 ?
Response line: 49 nM

Prompt line: What do you get for Cc1cc(NC(=O)[C@H](O)c2cc(F)cc(F)c2)ccc1-c1cnc(N)c(C(=O)NC(C)(C)C)c1 ?
Response line: 114 nM

Prompt line: What do you get for Cc1cc(NC(=O)[C@H](O)c2cc(F)cc(F)c2)ccc1-c1cncc(C(=O)NC(C)C)c1 ?
Response line: 181 nM
